targetDesc: Substance-P receptor (Homo sapiens)
Sequence (P25103 whole entry): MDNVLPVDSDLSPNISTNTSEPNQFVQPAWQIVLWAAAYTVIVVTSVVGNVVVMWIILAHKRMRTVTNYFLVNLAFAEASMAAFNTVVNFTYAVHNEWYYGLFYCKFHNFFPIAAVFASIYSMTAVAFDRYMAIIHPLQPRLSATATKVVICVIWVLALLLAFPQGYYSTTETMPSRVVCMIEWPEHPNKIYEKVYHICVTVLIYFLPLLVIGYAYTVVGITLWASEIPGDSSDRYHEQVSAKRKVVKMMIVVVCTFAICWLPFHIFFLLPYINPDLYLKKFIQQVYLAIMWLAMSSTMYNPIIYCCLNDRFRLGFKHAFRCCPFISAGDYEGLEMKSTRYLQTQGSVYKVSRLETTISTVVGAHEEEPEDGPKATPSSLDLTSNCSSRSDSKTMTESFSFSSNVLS
assayRemarks: Displacement of [3H]substance P from human NK1 receptor expressed in CHO cells
Format: cell-based
Catalogue of compounds with associated logIC50
API doc: respond with a numeric literal and nothing else, no unit.

[
  {
    "smilesText": "CC(C)C[C@H](NC(=O)[C@@H]1CCCN1C(=O)[C@H](Cc1ccccc1)NC(=O)CNC(=O)[C@@H](C)NC(=O)[C@@H](N)Cc1ccc(O)cc1)C(=O)N[C@@H](Cc1c[nH]c2ccccc12)C(=O)OCc1cc(C(F)(F)F)cc(C(F)(F)F)c1",
    "measuredParameter": "logIC50",
    "assayResult": -10
  }
]

Please find the next compound below.
Reported logIC50 for `CC(C)C[C@H](NC(=O)[C@@H]1CCCN1C(=O)[C@H](Cc1ccccc1)NC(=O)CNC(=O)[C@@H](C)NC(=O)[C@@H](N)Cc1ccc(O)cc1)C(=O)N[C@@H](Cc1c[nH]c2ccccc12)C(=O)NCc1ccccc1` was -7.5
